Experiment: chemical recovery into PDMS from spiked human plasma; higher = better extraction
Details: pooled human plasma; extraction method: PES with PDMS; equilibration time (d): 1
Classification field: enter Y for chemical recovery into PDMS values not below 20%, N for values below it.

Past entries and their recorded results:
molecule	category-label
c1cc2c3c(c1)ccc1cccc(c13)C2 [4H-Cyclopenta(def)phenanthrene]	Y
CCC(=O)OCC(=O)[C@@]1(OC(=O)CC)[C@@H](C)C[C@H]2[C@@H]3CCC4=CC(=O)C=C[C@]4(C)[C@@]3(F)[C@@H](O)C[C@@]21C [Betamethasone dipropionate]	Y
c1ccc2cc3ccccc3cc2c1 [Anthracene]	Y
c1ccc2c(c1)[nH]c1cnccc12 [Norharmane]	Y
N#CSCSc1nc2ccccc2s1 [(Benzothiazol-2-ylthio)methyl thiocyanate]	Y
O=C1NCCN1Cc1ccc(Cl)nc1 [Imidacloprid-urea]	N

Does the reported chemical recovery into PDMS for CC(=O)c1cc(C(C)(C)C)cc2c1CCC2(C)C [Celestolide] fall at or above the 20% mark?
Y

Kindly determine if chemical recovery into PDMS recorded for CCc1cccc(C)c1N(C(=O)CCl)C(C)COC (stereo not given) [Metolachlor] is above or exactly 20%.
Y

Dear colleague, could you confirm whether CNC(=O)Oc1cccc2c1OC(C)(C)O2 [Bendiocarb] has chemical recovery into PDMS at or above 20%?
Y

Form field: chemical recovery into PDMS at least 20%? Entry: c1ccc2[nH]nnc2c1 [1H-Benzotriazole]
N

Can O=C(/C=C/C=C/c1ccc2c(c1)OCO2)N1CCCCC1 [Piperine] be said to have chemical recovery into PDMS at or above 20%?
Y

Is chemical recovery into PDMS for c1ccc(-c2cccc3ccccc23)cc1 [1-Phenylnaphthalene] at or above 20%?
Y

In plain terms: is recorded chemical recovery into PDMS at least 20% for Nc1cnn(-c2ccccc2)c(=O)c1Cl [Chloridazon] ?
N

Is reported chemical recovery into PDMS greater than or equal to 20% here: Cl[C@H]1[C@H](Cl)[C@@H](Cl)[C@H](Cl)[C@H](Cl)[C@H]1Cl [alpha-HCH]
Y

Exam item: decide whether the reported chemical recovery into PDMS for CCCC1COC(Cn2cncn2)(c2ccc(Cl)cc2Cl)O1 (stereo not given) [Propiconazole] is at least 20%.
Y

Does the reported chemical recovery into PDMS for CCOC(=O)c1ccc(N)cc1 [Benzocain] fall at or above the 20% mark?
Y

State whether the measured chemical recovery into PDMS reaches 20%, counting equality as reaching it, for CCC(=O)O[C@]1(C(=O)SCF)[C@H](C)C[C@H]2[C@@H]3C[C@H](F)C4=CC(=O)C=C[C@]4(C)[C@@]3(F)[C@@H](O)C[C@@]21C [Fluticasone propionate]
Y

Does CC1=CC(=O)CC(C)(C)C1 [Isophorone] have a reported chemical recovery into PDMS of at least 20%?
N

Decide: is the reported value of chemical recovery into PDMS for C/C(=N\C#N)N(C)Cc1ccc(Cl)nc1 [Acetamiprid] equal to or greater than 20%?
N

Decide: is the reported value of chemical recovery into PDMS for CC(C)(C)c1ccc(CSc2cnn(C(C)(C)C)c(=O)c2Cl)cc1 [Pyridaben] equal to or greater than 20%?
Y
